system: SK-MEL-28 melanoma; test: NCI tumour cell line growth inhibition, 48 h
readout: GI50

1. COc1cccc(N=N/C(=N\NC(=O)c2cc(Br)ccc2O)c2ccc(N(CCC#N)CCC#N)cc2OC)c1 :: 62.7 µg/mL
2. NS(=O)(=O)c1ccc(-n2ncc3c(Nc4ccccc4)ncnc32)cc1 :: 31.6 µM
3. O=C(COc1cccc(/C=C2\Oc3ccc4ccccc4c3C2=O)c1)c1ccc(Cl)cc1 :: > 100 µM
4. COc1cc2c3c(n(CCCBr)c(=O)c2cc1OC)-c1ccc(F)cc1C3=O :: 39.8 µM
5. FC(F)(F)c1cccc2c(SCCc3n[nH]c(=S)o3)ccnc12 :: 82.9 µM
6. COc1ccc2c(c1)c(-c1ccc(-c3cn(C)c4ccc(OC)cc34)[nH]1)cn2C :: 3.18 µM
7. Nc1c(C(=O)N/N=C/c2ccc(-c3cc(Cl)c(Cl)cc3Cl)o2)cnn1-c1ccnc2c(C(F)(F)F)cccc12 :: 4.03 µM
8. Clc1ccc(C2CC(c3cccc(Nc4ccncc4)c3)=NN2c2cc(Cl)cc(Cl)c2)cc1 (stereo unspecified) :: 1.76 µM
9. Nc1nccc2c1ncn2C1OC(CO)C(O)C1O (stereo unspecified) :: > 100 µM
10. C=C1C(OC/C=C/COC2O[C@@H]3O[C@@]4(C)CC[C@H]5[C@H](C)CC[C@@H](C2=C)[C@@]35OO4)O[C@@H]2O[C@@]3(C)CC[C@H]4[C@H](C)CC[C@@H]1[C@@]24OO3 (stereo partly specified) :: 12.3 µM
11. O=C1c2ccccc2-c2c1c1ccc([N+](=O)[O-])cc1c(=O)n2CCCNCCO :: 1.27 µM
